- System: Staphylococcus aureus
- assay_name: Bactericidal activity against Staphylococcus aureus ATCC 25923 assessed as inhibition of bacterial growth at 1 times MIC measured upto 360 mins by time-kill assay
- Type: functional, organism-based
The source made the active and inactive calls. The calls are words filed in the database; no cut-off is given here. Where a SMILES comes first, the peptide text is derived from it. Bridges are numbered along the chain shown (N, C = ends). [ ]: non-standard residue; d: D form. The star is where a group is joined. Heptanoyl(6-Me) = CC(C)CCCCC(=O)*; dDab = NCC[C@@H](N)C(=O)O; Dab = NCC[C@H](N)C(=O)O
readout_type: Activity

- CCCCCCCC(=O)N[C@@H](CCN)C(=O)N[C@H](C(=O)N[C@@H](CCN)C(=O)N[C@H](Cc1ccccc1)C(=O)N[C@@H](CC(C)C)C(=O)N[C@@H](CCN)C(=O)N[C@@H](C(=O)N[C@@H](CC(C)C)C(=O)N[C@@H](Cc1ccc(O)cc1)C(N)=O)C(C)C)[C@@H](C)CC: inactive
- CC[C@H](C)[C@@H]1NC(=O)[C@H](CCN)NC(=O)C[C@@H](C(C)C)OC(=O)[C@H]([C@@H](C)O)NC(=O)[C@H](CC(C)C)NC(=O)[C@@H](C(C)C)NC(=O)[C@H](CCN)NC(=O)[C@H](CC(C)C)NC(=O)[C@@H](Cc2ccccc2)NC(=O)[C@H](CCN)NC1=O: inactive
- CC(C)CCCCC(=O)N[C@@H](CCN)C(=O)N[C@H](C(=O)N[C@@H](CCN)C(=O)N[C@H]1CCNC(=O)[C@H]([C@@H](C)O)NC(=O)[C@H](CCN)NC(=O)[C@H](CCN)NC(=O)[C@H](CC(C)C)NC(=O)[C@@H](Cc2ccccc2)NC(=O)[C@@H](CCN)NC1=O)[C@@H](C)O ({Heptanoyl(6-Me)}-[Dab]T[Dab][Dab][dDab][dF]L[Dab][Dab]T; lactam 4-C): inactive
- CCCCCCC(=O)N[C@@H](CCN)C(=O)N[C@H](C(=O)N[C@@H](CCN)C(=O)N[C@H](Cc1ccccc1)C(=O)N[C@@H](CC(C)C)C(=O)N[C@@H](CCN)C(=O)N[C@@H](C(=O)N[C@@H](CC(C)C)C(=O)N[C@@H](Cc1ccc(O)cc1)C(N)=O)C(C)C)[C@@H](C)CC: inactive

----------
- Tested on: Bacillus subtilis
- assay_name: Antibacterial activity against Bacillus subtilis ATCC 23857 assessed as bacterial growth inhibition incubated for 18 hrs by broth microdilution method
- Format: functional
Exercise: for every item that follows, state its recorded MIC.
I only need the number, in µg/mL, no unit after it.

Problem: Form: Entry = CCCCCC(=O)N[C@@H](CCN)C(=O)N[C@H](C(=O)N[C@@H](CCN)C(=O)N[C@H](Cc1ccccc1)C(=O)N[C@@H](CC(C)C)C(=O)N[C@H]1CCNC(=O)[C@H]([C@@H](C)O)NC(=O)[C@H](CC(C)C)NC(=O)[C@@H](C(C)C)NC1=O)[C@@H](C)CC | System = Bacillus subtilis | MIC = ____
Solution: 4

Problem: Now consider CCCCCC(=O)N[C@@H](CCN)C(=O)N[C@H](C(=O)N[C@@H](CCN)C(=O)N[C@H](Cc1ccccc1)C(=O)N[C@@H](CC(C)C)C(=O)N[C@@H](CCN)C(=O)N[C@@H](C(=O)N[C@@H](CC(C)C)C(=O)N[C@H](C(N)=O)[C@@H](C)CC)C(C)C)[C@@H](C)CC .
Solution: 8
